Reported remaining activity at 100 µM values follow for various molecules
- ASSAY SYSTEM: ABCC11 (Homo sapiens)
- Construct: full-length human ABCC11 WT
- EXPERIMENT DESCRIPTION: biochemical
- Parameters: Vesicle transport assay: ATP-dependent uptake of radiolabeled DHEA-S into ABCC11-expressing membrane vesicles, rapid filtration, scintillation counting
- PROTOCOL CONDITIONS: ABCC11-mediated DHEA-S transport, % of control, 5 min, 37 °C
- Method: The inhibitory effects of the various target extracts and compounds on the ABCC11 function were examined using the in vitro vesicle transport assay, a well-established method to quantitatively evaluate ABC transporter function. […] Then, the radioactivity incorporated into the plasma membrane vesicles was measured with a liquid scintillator (Tri-Carb 3110TR; PerkinElmer). […] ATP-dependent DHEA-S transport was calculated by the difference in transport activity with and without ATP. […]
Entry rule: numbers only, all in %.

MOLECULE	ENDPOINT NAME	READING UNIT	NUMERIC VALUE
Oc1cc(O)c2c(c1)O[C@H](c1cc(O)c(O)c(O)c1)[C@H](O)C2 [(−)-Epigallocatechin]	remaining activity at 100 µM	%	83.6
O=c1c(O)c(-c2ccc(O)cc2)oc2cc(O)cc(O)c12	remaining activity at 100 µM	%	42.8
O=C1c2c(O)cc(O)cc2O[C@H](c2cc(O)c(O)c(O)c2)[C@H]1O [Dihydromyricetin]	remaining activity at 100 µM	%	56.9
O=c1c(O)c(-c2ccc(O)c(O)c2)oc2cc(O)ccc12	remaining activity at 100 µM	%	37.7
O=C(O[C@@H]1Cc2c(O)cc(O)cc2O[C@H]1c1cc(O)c(O)c(O)c1)c1cc(O)c(O)c(O)c1 [(−)-Gallocatechin gallate]	remaining activity at 100 µM	%	24

Record request: remaining activity at 100 µM value, item O=c1c(O)c(-c2ccccc2)oc2cc(O)cc(O)c12
63.6

Record request: remaining activity at 100 µM value, item COc1ccc([C@@H]2CC(=O)c3c(O)cc(O)cc3O2)cc1O
5.2

Record request: remaining activity at 100 µM value, item Oc1cc(O)c2c(c1)O[C@H](c1ccc(O)c(O)c1)[C@H](O)C2 [(−)-Epicatechin]
85.2

###

- ASSAY SYSTEM: ABCC11 (Homo sapiens, UniProt Q96J66)
- Construct: full-length human ABCC11 WT
- Sequence (Q96J66 whole entry): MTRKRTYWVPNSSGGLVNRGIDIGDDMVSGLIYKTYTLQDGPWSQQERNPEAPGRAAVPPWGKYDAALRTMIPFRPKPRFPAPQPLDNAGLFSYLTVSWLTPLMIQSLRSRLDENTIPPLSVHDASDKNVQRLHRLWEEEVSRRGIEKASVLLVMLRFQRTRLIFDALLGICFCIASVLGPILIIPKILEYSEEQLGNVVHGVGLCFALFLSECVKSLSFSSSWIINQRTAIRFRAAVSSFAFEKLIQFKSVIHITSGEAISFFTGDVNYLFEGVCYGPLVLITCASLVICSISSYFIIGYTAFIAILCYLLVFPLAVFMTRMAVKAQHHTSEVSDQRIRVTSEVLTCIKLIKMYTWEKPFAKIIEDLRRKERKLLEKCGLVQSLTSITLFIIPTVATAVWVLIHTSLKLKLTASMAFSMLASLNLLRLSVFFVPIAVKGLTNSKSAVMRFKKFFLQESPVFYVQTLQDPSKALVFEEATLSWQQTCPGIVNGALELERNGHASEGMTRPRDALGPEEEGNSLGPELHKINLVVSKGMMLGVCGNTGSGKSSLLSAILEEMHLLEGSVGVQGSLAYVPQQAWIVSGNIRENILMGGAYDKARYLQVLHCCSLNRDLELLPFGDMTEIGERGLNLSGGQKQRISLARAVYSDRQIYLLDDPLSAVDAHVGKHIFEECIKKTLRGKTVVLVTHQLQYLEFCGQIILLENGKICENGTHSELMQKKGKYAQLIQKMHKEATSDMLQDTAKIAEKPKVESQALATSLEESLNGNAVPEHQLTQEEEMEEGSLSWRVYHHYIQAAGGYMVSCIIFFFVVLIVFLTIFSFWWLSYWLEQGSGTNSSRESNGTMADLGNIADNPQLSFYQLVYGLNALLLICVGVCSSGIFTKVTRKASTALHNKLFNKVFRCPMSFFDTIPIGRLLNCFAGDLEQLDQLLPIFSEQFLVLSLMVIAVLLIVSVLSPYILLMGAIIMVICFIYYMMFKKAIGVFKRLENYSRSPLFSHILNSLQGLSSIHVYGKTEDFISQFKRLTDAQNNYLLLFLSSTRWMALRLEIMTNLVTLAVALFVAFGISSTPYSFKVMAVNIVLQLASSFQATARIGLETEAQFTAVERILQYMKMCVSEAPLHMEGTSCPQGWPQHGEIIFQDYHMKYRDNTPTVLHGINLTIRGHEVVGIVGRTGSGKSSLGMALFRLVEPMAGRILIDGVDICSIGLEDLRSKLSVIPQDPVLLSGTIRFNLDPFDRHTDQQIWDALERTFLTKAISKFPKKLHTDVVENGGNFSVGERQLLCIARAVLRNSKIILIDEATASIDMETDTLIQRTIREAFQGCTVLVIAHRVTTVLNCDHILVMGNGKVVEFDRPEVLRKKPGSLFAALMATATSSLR
- EXPERIMENT DESCRIPTION: biochemical
- Set-up: Vesicle transport assay: ATP-dependent uptake of radiolabeled DHEA-S into ABCC11-expressing membrane vesicles, rapid filtration, scintillation counting
- PROTOCOL CONDITIONS: ABCC11-mediated DHEA-S transport, % of control, 5 min, 37 °C
Mark YES for remaining activity at 100 µM under 70%, NO if at or over.

Consider the following illustrative entries.
MOLECULE	CLASS
O=c1c(O)c(-c2ccccc2)oc2ccccc12 [3-Hydroxyflavone]	NO
COc1cc(O)cc(O)c1C(=O)/C=C/c1ccccc1	NO

Item O=C1c2c(O)cc(O)cc2O[C@H](c2ccc(O)c(O)c2)[C@H]1O : remaining activity at 100 µM beneath 70%, strictly?
YES

Item O=C1C[C@@H](c2ccc(O)cc2)Oc2cc(O)cc(O)c21 : remaining activity at 100 µM beneath 70%, strictly?
YES

Item COc1cc(O)c(CC=C(C)C)c(O)c1C(=O)/C=C/c1ccc(O)cc1 : remaining activity at 100 µM beneath 70%, strictly?
YES

Item O=c1c(O)c(-c2ccc(O)cc2O)oc2cc(O)cc(O)c12 : remaining activity at 100 µM beneath 70%, strictly?
YES

From: paper PMC7468911
